All values here come from patent US8791267B2.

Target: PDE4 (Homo sapiens)
Sequence (Q08499 whole entry): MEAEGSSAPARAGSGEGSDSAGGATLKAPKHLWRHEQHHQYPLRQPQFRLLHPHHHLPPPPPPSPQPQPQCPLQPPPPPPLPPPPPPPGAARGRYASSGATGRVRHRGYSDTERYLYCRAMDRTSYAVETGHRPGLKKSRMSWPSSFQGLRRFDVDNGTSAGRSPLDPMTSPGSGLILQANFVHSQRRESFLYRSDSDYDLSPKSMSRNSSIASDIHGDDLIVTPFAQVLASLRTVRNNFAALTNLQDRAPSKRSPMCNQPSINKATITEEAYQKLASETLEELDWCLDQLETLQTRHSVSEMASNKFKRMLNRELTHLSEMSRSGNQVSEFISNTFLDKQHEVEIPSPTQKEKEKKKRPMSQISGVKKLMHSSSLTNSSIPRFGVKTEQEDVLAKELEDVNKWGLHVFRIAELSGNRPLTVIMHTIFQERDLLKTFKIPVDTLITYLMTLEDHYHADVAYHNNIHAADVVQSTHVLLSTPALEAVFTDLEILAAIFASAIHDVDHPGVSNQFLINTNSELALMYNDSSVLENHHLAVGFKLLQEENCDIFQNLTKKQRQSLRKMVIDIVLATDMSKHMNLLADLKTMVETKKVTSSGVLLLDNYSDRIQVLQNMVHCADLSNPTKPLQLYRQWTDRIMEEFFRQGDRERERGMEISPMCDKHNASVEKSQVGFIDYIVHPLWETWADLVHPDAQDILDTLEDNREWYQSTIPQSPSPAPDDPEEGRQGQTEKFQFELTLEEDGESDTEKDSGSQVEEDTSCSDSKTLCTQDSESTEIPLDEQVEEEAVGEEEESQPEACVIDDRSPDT
Assay: In-vitro assay for PDE4 enzymes, real-time enzyme-coupled spectrophotometric assay (Table 9)
Assay type: biochemical
Conditions: human PDE4D; activity class, Table 9; read-out: hPDE4D
measure_name: IC50

>  <compound_smiles>
CNc1ccc(Cc2ccc(OC)c(-c3cccc(Cl)c3)c2)cc1

>  <IC50>
< 5 µM

$$$$
>  <compound_smiles>
COc1ccc(Cn2ccc(N)cc2=O)cc1-c1cccc([N+](=O)[O-])c1

>  <IC50>
5 to 20 µM

$$$$
>  <compound_smiles>
COc1cccc(-c2cc(CN3CCCC3=O)ccc2OC)c1

>  <IC50>
5 to 20 µM

$$$$
>  <compound_smiles>
COc1ccc(CN2CCCC2=O)cc1-c1ccc(F)c(F)c1

>  <IC50>
5 to 20 µM

$$$$
>  <compound_smiles>
COc1ccc(Cc2ccc(CNC(N)=O)cc2)c(F)c1-c1cccc([N+](=O)[O-])c1

>  <IC50>
< 5 µM

$$$$
>  <compound_smiles>
COCCOc1ccc(Cc2ccc(=O)n(CCOC)n2)cc1-c1cccc([N+](=O)[O-])c1

>  <IC50>
5 to 20 µM

$$$$

Okay, here is my list. What is IC50 for each of these?
1. CCNC(=O)Nc1nnc(Cc2ccc(OC)c(-c3cccc(Cl)c3)c2F)s1
2. CCOc1ccc(Cc2ccc(NC(N)=O)cc2)c(F)c1-c1cccc(C(C)=O)c1

Ans:
1: < 5 µM; 2: < 5 µM

For every item in the list below, what is its measured IC50?
1. COc1ccc(CO)nc1-c1cccc([N+](=O)[O-])c1
2. COc1ccc(Cc2ccc(CN)nc2)c(F)c1-c1cccc(Cl)c1
3. COCc1cccc(-c2cc(Cn3cncn3)ccc2OC)c1
4. COc1ccc(Cc2ccc(NC(N)=O)nc2)c(F)c1-c1cccc(Cl)c1
5. COc1ccc(Cc2ccc(NC(C)=O)cc2)c(F)c1-c1cccc(Cl)c1
6. COc1ccc(Cc2ccc(OC)c(-c3cccc(Cl)c3)c2F)cn1
7. COc1ccc(Cc2ccc(OC[C@H]3CCCN3)nc2)c(F)c1-c1cccc(Cl)c1
8. COc1ccc(Cc2ccccc2CO)cc1-c1cccc([N+](=O)[O-])c1

Ans:
20 to 40 µM
< 5 µM
< 5 µM
< 5 µM
< 5 µM
< 5 µM
< 5 µM
< 5 µM

Could I get IC50 for every one of these entries?
1. COc1ccc(Cc2cnc(N)nc2)c(F)c1-c1cccc(C#N)c1
2. COc1ccc(Cc2ccc(N3CCCC3)nc2)c(F)c1-c1cccc(Cl)c1
3. COCc1ccc(OC)c(-c2cccc([N+](=O)[O-])c2)n1
4. COc1ccc(Cc2ccc(N(C)C)cc2)c(O)c1-c1cccc([N+](=O)[O-])c1

Ans:
1. < 5 µM
2. < 5 µM
3. 5 to 20 µM
4. < 5 µM
